The measurements presented in this section are drawn from patent US8791303B2.

System: Avena fatua (AVEFA)
Assay Explanation: Example A glasshouse herbicide test, post-emergence, AVEFA
Assay type: in vivo
Study Conditions: Avena fatua, post-emergence, 312 h, Rate 250 g/ha, sprayed after 8 days cultivation, evaluated after 13 days, read-out: Post-Emergence Activity AVEFA (100=total damage to plant; 0=no damage to plant)
Lab note - cut at 20% for pest or weed control at 250 g/ha: Satisfied if strictly below, Not satisfied if not.

In: I'd appreciate it if you could check whether Cc1cc(C)c(C2C(=O)CC(Cc3cc(F)cc(F)c3)C2=O)c(C)c1 (stereo not drawn) has pest or weed control at 250 g/ha smaller than 20%.
Out: Not satisfied

In: Is pest or weed control at 250 g/ha strictly under 20% for the entry Cc1cc(C)c(C2=C(OC(=O)C(C)(C)C)CC(Cc3cc(F)cc(F)c3)C2=O)c(C)c1 (stereo not drawn) ?
Out: Satisfied

In: hey, is pest or weed control at 250 g/ha for Cc1cc(C)c(C2=C(OC(=O)C(C)(C)C)C/C(=C\C3CCCCC3)C2=O)c(C)c1 lower than 20% or not?
Out: Satisfied

In: Report whether reported pest or weed control at 250 g/ha is lower than 20% (strictly) for Cc1cc(C)c(C2C(=O)CC(Cc3ccc(C#N)cc3)C2=O)c(C)c1 (stereo not drawn)
Out: Not satisfied

In: Determine whether this compound shows pest or weed control at 250 g/ha lower than 20% (ties excluded): Cc1cc(C)c(C2C(=O)C/C(=C\C3CCCC3)C2=O)c(C)c1 (stereo not drawn)
Out: Not satisfied

In: Quick check: does Cc1cc(C)c(C2C(=O)C/C(=C\C3CCCC(C)C3)C2=O)c(C)c1 (stereo not drawn) have pest or weed control at 250 g/ha under 20%?
Out: Not satisfied

====

System: Alopecurus myosuroides (ALOMY)
Assay Explanation: Example A glasshouse herbicide test, post-emergence, ALOMY
Assay type: in vivo
Study Conditions: Alopecurus myosuroides, post-emergence, 312 h, Rate 250 g/ha, sprayed after 8 days cultivation, evaluated after 13 days, read-out: Post-Emergence Activity ALOMY (100=total damage to plant; 0=no damage to plant)
Description: Seeds of a variety of test species are sown in standard soil in pots. […] The test plants are then grown in a glasshouse under controlled conditions in a glasshouse (at 24/16° C., day/night; 14 hours light; 65% humidity) and watered twice daily. After 13 days for pre and post-emergence, the test is evaluated (100=total damage to plant; 0=no damage to plant). […]
Tick Met if pest or weed control at 250 g/ha is 60% or greater. Tick Not met if pest or weed control at 250 g/ha is less than 60%.

Solved cases (4 shown):
- Molecule: "Cc1cc(C)c(C2C(=O)CC(Cc3ccccc3C)C2=O)c(C)c1 (centres unmarked)"
  Assigned Label: "Met"
- Molecule: "Cc1cc(Br)cc(C)c1C1C(=O)C/C(=C\\C2CCCCC2)C1=O (centres unmarked)"
  Assigned Label: "Not met"
- Molecule: "Cc1cc(C)c(C2=C(OC(=O)C(C)(C)C)CC(Cc3ccc(C#N)cc3)C2=O)c(C)c1 (centres unmarked)"
  Assigned Label: "Met"
- Molecule: "Cc1cc(C)c(C2C(=O)CC(Cc3ccc(C#N)cc3)C2=O)c(C)c1 (centres unmarked)"
  Assigned Label: "Met"

In: Please indicate if the recorded pest or weed control at 250 g/ha for Cc1cc(C)c(C2=C(OC(=O)C(C)(C)C)CC(Cc3ccccc3C)C2=O)c(C)c1 (centres unmarked) meets or exceeds 60%.
Out: Not met

In: Does Cc1cc(C)c(C2=C(OC(=O)C(C)(C)C)CC(Cc3ccc(F)cc3)C2=O)c(C)c1 (centres unmarked) have a reported pest or weed control at 250 g/ha of at least 60%?
Out: Not met

In: Check this molecule for pest or weed control at 250 g/ha at or above 60%: Cc1cc(C)c(C2C(=O)CC(Cc3ccccc3F)C2=O)c(C)c1 (centres unmarked)
Out: Met

In: I'd appreciate it if you could say whether Cc1cc(C)c(C2C(=O)CC(Cc3ccc(S(C)(=O)=O)cc3)C2=O)c(C)c1 (centres unmarked) has pest or weed control at 250 g/ha at least equal to 60%.
Out: Met

In: Entry Cc1cc(C)c(C2C(=O)CC(Cc3cccc(Oc4ccccc4)c3)C2=O)c(C)c1 (centres unmarked) : is its pest or weed control at 250 g/ha no less than 60%?
Out: Not met

In: Record COc1ccc(CC2CC(=O)C(c3c(C)cc(C)cc3C)C2=O)cc1 (centres unmarked) ; criterion: pest or weed control at 250 g/ha no lower than 60%. Met?
Out: Met

In: Would you say Cc1cc(C)cc(CC2CC(OC(=O)C(C)(C)C)=C(c3c(C)cc(C)cc3C)C2=O)c1 (centres unmarked) shows pest or weed control at 250 g/ha at minimum 60%?
Out: Not met

In: I'd appreciate it if you could say whether Cc1cc(C)c(C2C(=O)C/C(=C\C3CCCCC3)C2=O)c(C)c1 (centres unmarked) has pest or weed control at 250 g/ha at least equal to 60%.
Out: Met

In: Confirm if pest or weed control at 250 g/ha reported for the molecule Cc1cc(C)c(C2=C(OC(=O)C(C)(C)C)CC(Cc3cc(F)cc(F)c3)C2=O)c(C)c1 (centres unmarked) is 60% or above.
Out: Not met
